# Tested on: SN12C renal
# test.method.notes: NCI-60 one-dose screen, 48 h (100 = growth as untreated, 0 = no growth, -100 = all killed)
# applied.conditions: 10 µM
Compounds without any hit were thinned out: in the full panel of roughly 83,000, 20% have a hit.
Classify by measured growth: Fulfilled if it is equal to or exceeds 50%, Not fulfilled if it is smaller.

**Query** Textbook exercise: given the entry COc1cc(-c2nc3ccc(C)cc3[nH]2)ccc1OCc1nnc(-c2ccccc2Br)o1 , state whether its growth is greater than or equal to 50%.
**Result** Fulfilled

**Query** What about this compound? Fc1ccc(/C=C/c2nc3ccccc3n3c(-c4ccc(Cl)cc4)nnc23)cc1
**Result** Fulfilled

**Query** Entry C#C[C@]1(O)CC[C@H]2[C@@H]3CC=C4c5sc(Nc6ccc(C(F)(F)F)cn6)nc5CC[C@]4(C)[C@H]3CC[C@@]21C please
**Result** Not fulfilled

**Query** What would you report for COc1ccc(C2OC[C@@]3(C)C4CC[C@]5(C)C(CC=C6C7CC(C)(C)CC[C@]7(C(=O)O)CC[C@]65C)[C@@]4(C)C[C@@H](O)[C@@H]3O2)cc1 (some centres not stated) ?
**Result** Fulfilled

**Query** Record: COc1cc(C2CC(c3ccccc3)=Nc3c(N)nc(N)nc3N2)ccc1Oc1nc(NCCO)nc(N2CCOCC2)n1 (configuration not stated)
**Result** Fulfilled

**Query** Next compound up: COc1ccc(-n2c(SCC(=O)NNS(=O)(=O)c3ccccc3)nc3ccc(Cl)cc3c2=O)cc1
**Result** Fulfilled

**Query** Same for CC(C)(C)c1cc(/C=C2\S/C(=N/c3ncn[nH]3)NC2=O)cc(C(C)(C)C)c1O
**Result** Not fulfilled

**Query** Item: COc1ccc2[nH]cc(-c3nc(N)nnc3-c3cn(C)c4ncc(Br)cc34)c2c1
**Result** Not fulfilled

**Query** Would you kindly repeat that for COc1ccc(C(=O)COc2ccc(NC(=O)Nc3ccccc3)cc2)cc1 ?
**Result** Fulfilled

**Query** # iterate: O=C(CN1CCN(c2ncnc3c2cnn3-c2ccccc2)CC1)Nc1ccc(Cl)cc1
**Result** Not fulfilled

**Query** // same read-out, input: O=C1NC2C=CC=CC2/C1=C1/SC(=S)N(C2CC(=O)N(c3ccc(Br)cc3)C2=O)C1=O (configuration not stated)
**Result** Fulfilled

* * *

# System: MDA-MB-468 breast
# test.method.notes: NCI-60 one-dose screen, 48 h
# applied.conditions: 10 µM unless noted
Compounds without any hit were thinned out: in the full panel of roughly 83,000, 20% have a hit. Calls of active or inactive are those of the source. How the source made its calls: active means growth percent below 10; inactive means the rest.
Respond with a class label; see active, inactive

                                   compound    target_of_assay  group_label
0  COc1ccc(NC(=O)c2ccc(Nc3ncnc4c3cnn4-c3cccc(F)c3)cc2)cc1  MDA-MB-468 breast     inactive
1  O=C(Cc1ccc(-c2ccc(OCCN3CCOCC3)cc2)cn1)NCc1ccccc1  MDA-MB-468 breast       active
2  Nc1ncnc2c1ncn2C1OC(COC(c2ccccc2)(c2ccccc2)c2ccccc2)C(O)C1O (stereo unspecified)  MDA-MB-468 breast     inactive
3      Cc1c(CN)cc(-c2ccc(Cl)cc2)n1-c1ccccc1  MDA-MB-468 breast     inactive
4  Cc1cc2c(c(C)c1Cl)C(=O)/C(=C/c1cccc([N+](=O)[O-])c1)O2  MDA-MB-468 breast     inactive

**Query** Called result for O=c1oc2ccc(Cl)cc2c(=O)n1-c1ccc(I)cc1F
**Result** active

**Query** Thanks! And COC(=O)C1CCCN(S(=O)(=O)/N=C2\NC(=O)NC2=C(Cl)Cl)C1 (stereo unspecified) ?
**Result** inactive

**Query** Likewise for O=C1/C(=C/C2=Cc3ccccc3OC2)SC(=S)N1c1ccc(F)cc1 ?
**Result** inactive

**Query** Same thing, different compound: COc1cc(-c2cc3ncccc3c3nc(N)c4cccnc4c23)cc(OC)c1OC
**Result** active

**Query** Now this one: O=C(Nc1ccc(-n2ccc3c(NC(=O)c4ccccc4)ncnc32)cc1)c1cccc(C(F)(F)F)c1
**Result** inactive

**Query** # repeat for Cc1cc2ncc(-c3cc4ccccc4c(N4CCN(C)CC4)n3)nc2cc1C
**Result** active

**Query** Quick one: Oc1c(CN2CCCC2)cc(COCc2ccc(Br)cc2)c2cccnc12
**Result** active

**Query** Same question for O=C(Nc1nc(C(=O)N2CCN(C(c3ccccc3)c3ccccc3)CC2)cs1)c1ccc(NC2CCCCC2)c([N+](=O)[O-])c1 please.
**Result** inactive

**Query** # repeat for COc1ccc(-c2[nH]ncc2-c2cc(OC)c(OC)c(OC)c2)cc1
**Result** active

**Query** Input O=c1[nH]ccc2nc(N3CCC(O)CC3)nc(Nc3ccc(N4CCOCC4)cc3)c12
**Result** inactive

**Query** Another compound to look at: O=c1c2cc(-c3ccc(F)cc3F)ccc2n(Nc2ccccc2)c(=O)n1-c1cccc(C(F)(F)F)c1
**Result** active

* * *

# Test system: MDA-MB-468 breast
# test.method.notes: NCI-60 one-dose screen, 48 h (100 = growth as untreated, 0 = no growth, -100 = all killed)
# applied.conditions: 10 µM unless noted
The panel holds about 83,000 compounds, 20% with a hit somewhere; the sample as a whole holds those more often.
endpoint.label: growth (%)
Report the value in % with no unit label.

These solved cases illustrate the format of a correct answer.
In [3]: df
Out[3]:
                                   compound  value
0  CC(C)CNCC(=O)Nc1ccc(Cc2ccc(NC(=O)CNCC(C)C)cc2)cc1   79.5
1  O=S(=O)(Nc1ccc(Cl)c(Cl)c1)c1ccc(-c2cnc(C3CC3)o2)cc1   7.72
2  CN1CCN(c2c(F)cc(NC3=C(Cl)C(=O)c4ncccc4C3=O)cc2F)CC1  -46.6
3  Nc1nc2ccccc2c2c1S(=O)(=O)c1ccc(Cl)cc1C2=O   10.8
4        CC(C)Sc1nc(NN)c(C#N)c(-c2ccccc2)n1    113

Kindly consider the entry below.
**Query** Look at this compound and give its reported growth. CSc1nc(C)c(C(=O)CCN2CCN(c3ccccn3)CC2)s1
**Result** 87.1

* * *

# Test system: MDA-MB-468 breast
# test.method.notes: NCI-60 one-dose screen, 48 h
# applied.conditions: 10 µM unless noted
About 83,000 compounds went through this panel and 20% of them were active in at least one assay; those are over-represented in the sample as a whole. Calls of active or inactive are those of the source. The calls were made as follows: active = growth percent below 10; inactive = the rest.
Could you please pick one outcome from this set? active, inactive

Observe how each entry below is paired with its result.
molecule	target.of.assay	group.label
COc1ccc(C2CC(c3cccc(OCCCCOc4cccc(C5=NN(C(C)=O)C(c6ccc(OC)cc6)C5)c4)c3)=NN2C(C)=O)cc1 (centres undefined)	MDA-MB-468 breast	inactive
CN1CCN(Cc2ccc(NC(=O)c3cncc(C#Cc4c(N)ncc5ccc(F)cc45)c3)cc2C(F)(F)F)CC1	MDA-MB-468 breast	inactive
C=C(C)[C@@H]1CC[C@]2(C(=O)O)CC[C@]3(C)[C@H](CC[C@@H]4[C@@]5(C)C[C@@H](CC#Cc6ccc(Br)cc6)C(=O)C(C)(C)[C@@H]5CC[C@]43C)[C@@H]12	MDA-MB-468 breast	active
c1ccc(CCSc2ncnc3nc[nH]c23)cc1	MDA-MB-468 breast	inactive
COc1ccc(/C=C/C(=O)Nc2ncnc3nc[nH]c23)cc1	MDA-MB-468 breast	inactive
COc1cc(C2=NN(c3ccccc3)C(c3cccc(Nc4ccnc5cc(C(F)(F)F)ccc45)c3)C2)cc(OC)c1OC (centres undefined)	MDA-MB-468 breast	inactive
O=c1c(Cc2ccc(F)cc2)cc(-c2ccccc2)nn1C/C(=N/O)c1ccccc1	MDA-MB-468 breast	inactive
COc1ccc(-c2c(-c3cc4c(c(OC)c3OC)OCO4)noc2N)cc1	MDA-MB-468 breast	active
COC(=O)OC1C(O[C@H]2C[C@H]3[C@@H]4CC=C5C[C@@H](O)CC[C@]5(C)[C@H]4CC[C@]3(C)[C@H]2[C@H](C)C(=O)CCC(C)C)OCC(O)C1OC1OCC(O)C(O)C1OC(=O)c1ccc(OC)cc1 (some centres undefined)	MDA-MB-468 breast	active
CCCCCCCCn1ccc2cc(NC(=O)Cn3cc(CN4CCC(C)CC4)nn3)ccc21	MDA-MB-468 breast	active

**Query** Assay outcome for NC(=O)SCC(=O)Nc1ccccc1-c1ccccc1 : what was it?
**Result** inactive

**Query** How about CN(C)CCNc1ccc2ncc(C#Cc3cncc(C(=O)Nc4ccc(CN5CCN(C)CC5)c(C(F)(F)F)c4)c3)n2n1 ?
**Result** active

**Query** Thanks! And C=C(C)[C@@H]1CC[C@]2(COC)CC[C@]3(C)[C@H](CC[C@@H]4[C@@]5(C)CCCNC(C)(C)[C@@H]5CC[C@]43C)[C@@H]12 ?
**Result** active

**Query** Further, for c1coc([C@@H]2C[C@@H]3Cc4ccc5ccccc5c4N2O3)c1 ?
**Result** inactive

**Query** Check COc1ccc(OC)c(-c2c(C#N)c(-c3cccs3)nc3c2c(-c2ccccc2)nn3-c2ccccc2)c1 too.
**Result** inactive

Reference source for all entries: PubChem BioAssay (NCI)
